For rat mGlu2 receptor (Rattus norvegicus, UniProt P31421), measured Ki is reported for the entries below.
measured-quantity: Ki (nM)

What measured Ki goes with Cc1cc(-c2ccc(Cl)cc2)cn2c(-c3nc(-c4ccc(S(N)(=O)=O)s4)no3)cnc12 [Example 41] ?
21.3

[P] Cc1cc(-c2ccc(C(F)(F)F)cc2)cn2c(-c3nc(-c4ccc(N)nc4)no3)cnc12 [Example 47]
[Q] Nc1ccc(-c2noc(-c3cnn4c(C(F)(F)F)cc(-c5cccc(C(F)(F)F)c5)nc34)n2)cn1 [Example 34]
[R] Nc1ncc(-c2noc(-c3cnn4c(C(F)(F)F)cc(-c5ccc(C(F)(F)F)cc5)nc34)n2)cn1 [Example 46]
[S] Cc1cc(-c2cc(C(F)F)n3ncc(-c4nc(-c5ccc(N)nc5)no4)c3n2)ccc1Cl [Example 77]
Rank order required: Ki, descending. Use the labels to give the requested order.
Q, S, R, P
(Q: 51 nM, S: 25.5 nM, R: 14.5 nM, P: 7.7 nM)

[a] NS(=O)(=O)c1cccc(-c2noc(-c3cnc4c(C(F)(F)F)cc(-c5ccc(C(F)(F)F)cc5)cn34)n2)c1 [Example 11]
[b] NS(=O)(=O)c1ccc(-c2noc(-c3ncn4c(C(F)(F)F)cc(-c5ccc(C(F)(F)F)cc5)nc34)n2)s1 [Example 42]
Select the item with the higher value of Ki from the options a and b listed. The response must carry the label of the picked entry.
b

###

measured-quantity: melting point (°C)

State the recorded melting point for this entry: `Nc1cc(-c2noc(-c3cnn4c(C(F)(F)F)cc(-c5ccc(Cl)c(Cl)c5)nc34)n2)ccn1`
262

So what's the measured melting point for this one? `NS(=O)(=O)c1ccc(-c2nc(-c3ncn4c(C(F)(F)F)cc(-c5ccc(C(F)(F)F)cc5)nc34)no2)cc1`
303

Which melting point is listed for `Cc1cc(-c2cc(C(F)(F)F)n3ncc(-c4nc(-c5ccnc(N)c5)no4)c3n2)ccc1C(F)(F)F` ?
245

What does the record list as melting point for `Nc1ccc(-c2noc(-c3cnn4c(C(F)F)cc(-c5ccc(C(F)(F)F)c(Cl)c5)nc34)n2)cn1` ?
252

What does the record list as melting point for `Cc1cc(-c2ccc(Cl)cc2)cn2c(-c3nc(-c4cccc(S(N)(=O)=O)c4)no3)cnc12` ?
301

Could you tell me which melting point is on file for `NS(=O)(=O)c1ccc(-c2noc(-c3cnc4ccc(-c5ccc(C(F)(F)F)cc5)cn34)n2)cc1` ?
288

Would you kindly share the measured melting point for `Cc1cc(-c2ccc(Cl)cc2)cn2c(-c3nc(-c4ccc(S(N)(=O)=O)cc4)no3)cnc12` ?
311

Which melting point reading was recorded for the compound `NS(=O)(=O)c1cccc(-c2noc(-c3cnn4c(C(F)(F)F)cc(-c5ccc(C(F)(F)F)c(OCC(F)(F)F)c5)nc34)n2)c1` ?
250

What measured melting point goes with `Cc1cc(-c2cc(C(F)(F)F)n3ncc(-c4nc(-c5cccc(S(N)(=O)=O)c5)no4)c3n2)ccc1C(F)(F)F` ?
270

What measured melting point goes with `Nc1ccc(-c2noc(-c3cnn4c(C(F)(F)F)cc(-c5ccc(C(F)(F)F)cc5)nc34)n2)cn1` ?
257

Look up melting point: `NS(=O)(=O)c1ccc(-c2noc(-c3cnn4c(C5CC5)cc(-c5ccc(Cl)cc5)nc34)n2)s1`
294

GET /values?readout=melting point&item= `NS(=O)(=O)c1ccc(-c2noc(-c3cnn4c(C(F)F)cc(-c5ccc(Cl)cc5)nc34)n2)s1`
259

Please look up its melting point: `Nc1ccc(-c2noc(-c3cnc4ccc(-c5ccc(Cl)cc5)cn34)n2)cn1`
273

melting point for `NS(=O)(=O)c1cccc(-c2noc(-c3cnn4c(C(F)(F)F)cc(-c5ccc(C(F)(F)F)cc5)nc34)n2)c1` ?
262

# get_value(readout='melting point', item= `NS(=O)(=O)c1cccc(-c2noc(-c3cnn4c(C(F)(F)F)cc(-c5ccc(Cl)cc5)nc34)n2)c1` )
247

Fill blank: measured melting point of the compound `Nc1cc(-c2noc(-c3cnn4c(C(F)(F)F)cc(-c5ccc(C(F)(F)F)cc5)nc34)n2)ccn1` is ____.
277

I have this compound here, `Nc1ccc(-c2noc(-c3cnc4ccc(-c5ccc(C(F)(F)F)cc5)cn34)n2)cn1` , and I need its recorded melting point.
258

What melting point value was documented for this compound, `NS(=O)(=O)c1ccc(-c2noc(-c3cnc4ccc(-c5ccc(Cl)cc5)cn34)n2)s1` ?
263

Could you share which melting point value was measured for `Cc1cc(-c2cc(C(F)F)n3ncc(-c4nc(-c5ccc(N)nc5)no4)c3n2)ccc1Cl` ?
243

Give the measured melting point of `NS(=O)(=O)c1ccc(-c2noc(-c3cnn4c(C(F)(F)F)cc(-c5ccc(Cl)cc5)nc34)n2)cc1` .
296

For `Nc1ncc(-c2noc(-c3cnn4c(C(F)(F)F)cc(-c5ccc(F)c(F)c5)nc34)n2)cn1` , what is its reported melting point?
268

Data request, read-out melting point, for `NS(=O)(=O)c1ccc(-c2noc(-c3cnn4c(C(F)(F)F)cc(-c5cccc(C(F)(F)F)c5)nc34)n2)cc1`
300

Record request: melting point value, item `Nc1ccc(-c2noc(-c3cnn4c(C(F)F)cc(-c5ccc(Cl)c(Cl)c5)nc34)n2)cn1`
279

Reported melting point, compound `Nc1ncc(-c2noc(-c3cnn4c(C(F)(F)F)cc(-c5ccc(C(F)(F)F)cc5)nc34)n2)cn1` : ____
254

Could you tell me which melting point is on file for `Cc1cc(-c2ccc(C(F)(F)F)cc2)cn2c(-c3nc(-c4ccnc(N)c4)no3)cnc12` ?
264

State the recorded melting point for this entry: `NS(=O)(=O)c1ccc(-c2noc(-c3cnn4c(C(F)F)cc(-c5ccc(C(F)(F)F)cc5)nc34)n2)cc1`
283

Field request: melting point | item: `Nc1ncc(-c2noc(-c3cnn4c(C(F)(F)F)cc(-c5ccc(C(F)(F)F)c(F)c5)nc34)n2)cn1`
270

What does the record list as melting point for `NS(=O)(=O)c1cccc(-c2nc(-c3cnn4c(C(F)(F)F)cc(-c5ccc(C(F)(F)F)cc5)nc34)no2)c1` ?
285

Which melting point value is on record for `NS(=O)(=O)c1cccc(-c2noc(-c3cnn4c(C(F)F)cc(-c5ccc(Cl)cc5)nc34)n2)c1` ?
231

###

measured-quantity: melting point (°C)

Which value of melting point has been reported for Cc1cc(-c2ccc(C(F)(F)F)cc2)cn2c(-c3nc(-c4ccc(N)nc4)no3)cnc12 [Example 47] in the records?
257

Which melting point reading was recorded for the compound Nc1ccc(-c2noc(-c3cnn4c(C(F)(F)F)cc(-c5cccc(C(F)(F)F)c5)nc34)n2)cn1 [Example 34] ?
264

Form field: reported melting point of NS(=O)(=O)c1ccc(-c2noc(-c3cnn4ccc(-c5ccc(C(F)(F)F)cc5)nc34)n2)s1 [Example 52]
251

Fill blank: measured melting point of the compound NS(=O)(=O)c1ccc(-c2nc(-c3cnn4c(C(F)(F)F)cc(-c5ccc(C(F)(F)F)cc5)nc34)no2)cc1 [Example 14] is ____.
292

So what does the record say about melting point for Nc1ccc(-c2noc(-c3cnn4c(C(F)(F)F)cc(-c5ccc(F)c(F)c5)nc34)n2)cn1 [Example 76] ?
262

Entry under review: NS(=O)(=O)c1cccc(-c2noc(-c3cnn4c(C(F)F)cc(-c5ccc(C(F)(F)F)cc5)nc34)n2)c1 [Example 5] . Reported melting point?
267

// lookup melting point for Nc1ccc(-c2noc(-c3cnn4c(C(F)(F)F)cc(-c5ccc(C(F)(F)F)c(F)c5)nc34)n2)cn1 [Example 75]
233

Given the compound Cc1cc(-c2ccc(C(F)(F)F)cc2)cn2c(-c3nc(-c4ccc(S(N)(=O)=O)cc4)no3)cnc12 [Example 43] , what is its reported melting point?
290

For the compound Nc1ccc(-c2noc(-c3cnn4c(C(F)F)cc(-c5ccc(C(F)(F)F)c(OCC(F)(F)F)c5)nc34)n2)cn1 [Example 71] , what melting point is on record?
285

Recorded melting point of Nc1ccc(-c2noc(-c3cnn4c(C(F)F)cc(-c5ccc(C(F)(F)F)cc5)nc34)n2)cn1 [Example 36] , please.
242

Requested read-out: melting point. Entry: Nc1cc(-c2noc(-c3cnn4c(C(F)(F)F)cc(-c5ccc(Cl)cc5)nc34)n2)ccn1 [Example 85]
252

melting point for Cc1cc(-c2ccc(C(F)(F)F)cc2)cn2c(-c3nc(-c4ccc(S(N)(=O)=O)s4)no3)cnc12 [Example 45] ?
285

# lookup: melting point of Nc1ncc(-c2noc(-c3cnn4c(C(F)(F)F)cc(-c5ccc(C(F)(F)F)c(Cl)c5)nc34)n2)cn1 [Example 80]
279

Fill in: melting point of NS(=O)(=O)c1cccc(-c2noc(-c3cnn4c(C(F)(F)F)cc(-c5cccc(C(F)(F)F)c5)nc34)n2)c1 [Example 26] is ___
251

What value of measured melting point is listed for Nc1ccc(-c2noc(-c3cnn4c(C(F)(F)F)cc(-c5ccc(Cl)cc5)nc34)n2)cn1 [Example 62] ?
253

Can you look up the measured melting point of NS(=O)(=O)c1cccc(-c2noc(-c3cnn4ccc(-c5ccc(C(F)(F)F)cc5)nc34)n2)c1 [Example 53] for me?
270

Give its melting point value. Item: Nc1cc(-c2noc(-c3cnn4ccc(-c5ccc(C(F)(F)F)cc5)nc34)n2)ccn1 [Example 59]
250

Query (compound): Cc1cc(-c2cc(C(F)(F)F)n3ncc(-c4nc(-c5ccc(S(N)(=O)=O)cc5)no4)c3n2)ccc1C(F)(F)F [Example 18] ; field requested: melting point
273

I'd like to know its melting point. The compound in question is Nc1ccc(-c2noc(-c3cnn4c(C(F)F)cc(-c5ccc(Cl)cc5)nc34)n2)cn1 [Example 63]
254

# melting point lookup, item CCOc1cc(-c2cc(C(F)(F)F)n3ncc(-c4nc(-c5ccc(N)nc5)no4)c3n2)ccc1C(F)(F)F [Example 69]
263

Fill in: melting point of Cc1cc(-c2cc(C(F)F)n3ncc(-c4nc(-c5ccc(N)nc5)no4)c3n2)ccc1C(F)(F)F [Example 65] is ___
231

What value of melting point has been recorded for this entry: NS(=O)(=O)c1ccc(-c2noc(-c3cnc4c(C(F)(F)F)cc(-c5ccc(C(F)(F)F)cc5)cn34)n2)cc1 [Example 13]
292

For the compound shown here, Cc1cc(-c2cc(C(F)(F)F)n3ncc(-c4nc(-c5cnc(N)nc5)no4)c3n2)ccc1Cl [Example 84] , give the reported melting point.
272

Which melting point value is on record for NS(=O)(=O)c1cccc(-c2noc(-c3cnc4c(C(F)(F)F)cc(-c5ccc(C(F)(F)F)cc5)cn34)n2)c1 [Example 11] ?
297

Would you kindly share the measured melting point for NS(=O)(=O)c1ccc(-c2noc(-c3cnn4c(C(F)(F)F)cc(-c5ccc(C(F)(F)F)cc5)nc34)n2)cc1 [Example 1] ?
275

Return reported melting point; argument: Cc1cc(-c2ccc(C(F)(F)F)cc2)cn2c(-c3nc(-c4cnc(N)nc4)no3)cnc12 [Example 48]
302

May I ask what melting point has been recorded for CCOc1cc(-c2cc(C(F)F)n3ncc(-c4nc(-c5ccc(N)nc5)no4)c3n2)ccc1C(F)(F)F [Example 68] ?
250

Form field: reported melting point of Nc1ncc(-c2noc(-c3cnn4c(C(F)(F)F)cc(-c5ccc(Cl)c(Cl)c5)nc34)n2)cn1 [Example 81]
300
